Assay: Cell viability (MTT)
Conditions: human, NCI-N87 gastric carcinoma cells
recorded_metric: viability at 48 h, 4 µM (%)

1. COc1ccc(-c2cc(=O)c3c(OC)c(OC)c(OC)c(OC)c3o2)cc1OC ... 96
2. C[C@@H]1O[C@@H](OC[C@H]2O[C@@H](Oc3c(-c4ccc(O)c(O)c4)oc4cc(O)cc(O)c4c3=O)[C@H](O)[C@@H](O)[C@@H]2O)[C@H](O)[C@H](O)[C@H]1O ... 97
3. CC(C)=CCC/C(C)=C/COc1ccc2ccc(=O)oc2c1 ... 96
4. C=CCCN=C=S [BUITC, butenyl isothiocyanate] ... 71
5. CC(C)=CC(=O)CC(C)c1ccc(C)cc1 (centres unmarked) ... 97
6. C=C[C@H](OC(C)=O)c1ccc(OC(C)=O)cc1 [ACA, 1'-acetoxychavicol acetate] ... 92
7. O=C(OC1Cc2c(O)cc(O)cc2OC1c1cc(O)c(O)c(O)c1)c1cc(O)c(O)c(O)c1 (single isomer, unassigned; (-)) [EGCG, (−)-epigallocatechin-3-gallate] ... 78
8. COc1cc(/C=C/C(=O)O)ccc1O ... 96

###

Attribute: viability at 48 h, 20 µM
Assay: Cell viability (MTT)
Settings: human, NCI-N87 gastric carcinoma cells
recorded_metric: viability at 48 h, 20 µM (%)

1) COc1cc(/C=C/C(=O)CC(=O)/C=C/c2ccc(O)c(OC)c2)ccc1O ... 12
2) O=c1c(-c2ccc(O)cc2)coc2cc(O)cc(O)c12 ... 84
3) Oc1cc(O)c2c(c1)O[C@@H](c1ccc(O)c(O)c1)[C@H](O)C2 [(−)-Catechin] ... 97
4) Cn1c(=O)c2c(ncn2C)n(C)c1=O ... 100
5) O=C1O[C@H]([C@@H](O)CO)C(O)=C1O ... 94

###

Assay: Cell viability (MTT)
Details: human, NCI-N87 gastric carcinoma cells
recorded_metric: viability at 48 h, 100 µM (%)

1) CC(C)=CCC/C(C)=C/COc1ccc2ccc(=O)oc2c1 ... 18
2) CC(C)=CC(=O)CC(C)c1ccc(C)cc1 (stereo not shown) ... 57
3) C[C@H]1[C@H](C)CC[C@]2(C(=O)O)CC[C@]3(C)C(=CC[C@@H]4[C@@]5(C)CC[C@H](O)C(C)(C)[C@@H]5CC[C@]43C)[C@H]12 ... 9.7
4) O=C(OC1Cc2c(O)cc(O)cc2OC1c1cc(O)c(O)c(O)c1)c1cc(O)c(O)c(O)c1 (single isomer, unassigned; (-)) [EGCG, (−)-epigallocatechin-3-gallate] ... 78

###

Assay: Cell viability (MTT)
Conditions: human, NCI-N87 gastric carcinoma cells
Output 1 (yes) for records whose viability at 48 h, 20 µM is lower than 80%, 0 (no) for records at or above 80%.

1) O=S(=O)(O)O/N=C(/CCc1ccccc1)S[C@@H]1O[C@H](CO)[C@@H](O)[C@H](O)[C@H]1O [PEGLS, gluconasturtiin] ... 0 (no)
2) O=c1c(O)c(-c2ccc(O)c(O)c2)oc2cc(O)cc(O)c12 [Quercetin] ... 0 (no)
3) C/C1=C\CC(C)(C)/C=C/C(=O)/C(C)=C/CC1 [Zerumbone] ... 1 (yes)
4) S=C=NCc1ccccc1 [BITC, benzyl isothiocyanate] ... 1 (yes)
5) C[C@@H]1O[C@@H](OC[C@H]2O[C@@H](Oc3c(-c4ccc(O)c(O)c4)oc4cc(O)cc(O)c4c3=O)[C@H](O)[C@@H](O)[C@@H]2O)[C@H](O)[C@H](O)[C@H]1O [Rutin] ... 0 (no)

Cited source for all entries: paper PMC2533715
